EXPERIMENT SUMMARY: Example 3: multiple-dose (14 days) pharmacokinetics in HCV positive subjects
Format: in vivo, human
CONDITION DESCRIPTION: human, plasma; multiple oral dosing; read-out: steady-state level (trough, Cmin)
READOUT TYPE: concentration at 11 day

Param item = CC(C)(C)NC(=O)N[C@H](C(=O)N1C[C@H]2[C@@H]([C@H]1C(=O)NC(CC1CCC1)C(=O)C(N)=O)C2(C)C)C(C)(C)C (mixture of isomers) [Formula Ia] ; retrieve measured concentration at 11 day.
~200 ng/mL

---

EXPERIMENT SUMMARY: Pharmacokinetic parameter values on administration to a subject (summary)
Format: in vivo
CONDITION DESCRIPTION: human, plasma, oral; summary range, dose not stated
READOUT TYPE: Vd/F

Please report the recorded Vd/F for CC(C)(C)NC(=O)N[C@H](C(=O)N1C[C@H]2[C@@H]([C@H]1C(=O)NC(CC1CCC1)C(=O)C(N)=O)C2(C)C)C(C)(C)C (mixture of isomers) .
1500 to 6000 L

---

EXPERIMENT SUMMARY: Pharmacokinetic parameter values on administration to a subject (summary)
Type: in vivo
CONDITION DESCRIPTION: human, plasma, oral; summary range, dose not stated
READOUT TYPE: Tmax

Can you share its Tmax? I mean this molecule: CC(C)(C)NC(=O)N[C@H](C(=O)N1C[C@H]2[C@@H]([C@H]1C(=O)NC(CC1CCC1)C(=O)C(N)=O)C2(C)C)C(C)(C)C (mixture of isomers) [Formula Ia]
1 to 5 h

---

EXPERIMENT SUMMARY: Pharmacokinetic parameter values on administration to a subject (summary)
Assay type: in vivo
CONDITION DESCRIPTION: human, plasma, oral; summary range, dose not stated; read-out: AUC(0-8 hr)
READOUT TYPE: AUC(0-t)

# input compound: CC(C)(C)NC(=O)N[C@H](C(=O)N1C[C@H]2[C@@H]([C@H]1C(=O)NC(CC1CCC1)C(=O)C(N)=O)C2(C)C)C(C)(C)C (mixture of isomers) ; wanted: its AUC(0-t)
500 to 3000 ng·h/mL

---

EXPERIMENT SUMMARY: Pharmacokinetic parameter values on administration to a subject (summary)
Type: in vivo
CONDITION DESCRIPTION: human, plasma, oral; summary range, dose not stated
READOUT TYPE: half-life

Entry CC(C)(C)NC(=O)N[C@H](C(=O)N1C[C@H]2[C@@H]([C@H]1C(=O)NC(CC1CCC1)C(=O)C(N)=O)C2(C)C)C(C)(C)C (mixture of isomers) [Formula Ia] : reported half-life = ?
2 to 15 h

---

EXPERIMENT SUMMARY: Pharmacokinetic parameter values on administration to a subject (summary)
Format: in vivo
CONDITION DESCRIPTION: human, plasma, oral; summary range, dose not stated
READOUT TYPE: Cmax

# lookup: Cmax of CC(C)(C)NC(=O)N[C@H](C(=O)N1C[C@H]2[C@@H]([C@H]1C(=O)NC(CC1CCC1)C(=O)C(N)=O)C2(C)C)C(C)(C)C (mixture of isomers) [Formula Ia]
50 to 800 ng/mL
